# assay_explanation: Drug metabolism study in rats, intravenous administration
# condition_label: rat, plasma, iv, 1 mg/kg

smiles_representation | result_units | Cmax
C[C@@H](Nc1ccn2ncc(-c3cn[nH]c3)c2n1)c1cc(F)ccc1OCC(F)F | ng/mL | 260
C[C@@H](Nc1ccn2ncc(-c3cnn(CCO)c3)c2n1)c1cc(F)ccc1OCC(F)(F)F | ng/mL | 155
C[C@@H](Nc1ccn2ncc(-c3cnn(C)c3)c2n1)c1cc(F)ccc1OCC(F)F | ng/mL | 298
C[C@@H](Nc1ccn2ncc(-c3cn[nH]c3)c2n1)c1cc(F)ccc1OCC(F)(F)F | ng/mL | 174

* * *

# assay_system: TRKA (Homo sapiens)
# Construct: purchased Carna Biosciences 08-186
# Sequence (P04629 33-796): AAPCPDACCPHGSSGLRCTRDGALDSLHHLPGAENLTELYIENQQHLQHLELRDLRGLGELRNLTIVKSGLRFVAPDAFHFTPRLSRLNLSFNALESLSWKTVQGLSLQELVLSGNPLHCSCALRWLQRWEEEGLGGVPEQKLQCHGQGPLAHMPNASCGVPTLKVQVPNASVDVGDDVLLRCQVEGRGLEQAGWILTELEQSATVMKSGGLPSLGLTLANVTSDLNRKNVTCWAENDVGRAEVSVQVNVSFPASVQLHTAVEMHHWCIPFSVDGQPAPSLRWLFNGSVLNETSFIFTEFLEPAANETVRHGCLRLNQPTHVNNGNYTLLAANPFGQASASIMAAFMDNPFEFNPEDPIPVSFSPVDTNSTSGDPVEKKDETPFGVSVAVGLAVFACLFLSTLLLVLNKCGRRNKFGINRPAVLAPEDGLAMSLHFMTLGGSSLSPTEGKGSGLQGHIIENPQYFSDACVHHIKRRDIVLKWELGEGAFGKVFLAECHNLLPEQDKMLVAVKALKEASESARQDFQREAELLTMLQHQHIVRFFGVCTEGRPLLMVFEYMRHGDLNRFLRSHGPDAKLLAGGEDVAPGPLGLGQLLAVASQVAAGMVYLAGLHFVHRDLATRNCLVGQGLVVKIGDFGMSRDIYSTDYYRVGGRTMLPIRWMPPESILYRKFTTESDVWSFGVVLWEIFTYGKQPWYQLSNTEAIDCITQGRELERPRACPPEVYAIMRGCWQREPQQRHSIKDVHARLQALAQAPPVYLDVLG
# assay_explanation: In vitro biochemical HTRF KinEASE kinase inhibition, TRKA
# condition_label: wild-type kinase, final ATP 3.727 μmol/L; read-out: TRKA IC50
Criterion: IC50 strictly less than 8 nM. Met: yes. Not met: no.

compound | class_name
CC(Nc1ccn2ncc(-c3cnn(CC(F)F)c3)c2n1)c1cc(F)ccc1OCC(F)F (centres unmarked) [Compound 6] | no
CC(Nc1ccn2ncc(-c3cn[nH]c3)c2n1)c1cc(F)ccc1OCC1CCOCC1 (centres unmarked) [Compound b15-42] | no
CC(=O)n1cc(-c2cnn3ccc(N[C@H](C)c4cc(F)ccc4OCC(F)F)nc23)cn1 [Compound 12] | yes
CC(Nc1ccn2ncc(-c3cnn(C4CCOCC4)c3)c2n1)c1cc(F)ccc1OCC(F)F (centres unmarked) [Compound 11] | no
CC(Nc1ccn2ncc(-c3cnn(C4CCCC4O)c3)c2n1)c1cc(F)ccc1OCCF (centres unmarked) [Compound a17-24] | yes
CC(Nc1ccn2ncc(-c3cnn(C4CC4)c3)c2n1)c1cc(F)ccc1OCCF (centres unmarked) [Compound a14-21] | no
C[C@@H](Nc1ccn2ncc(-c3cnn(C4CCCCO4)c3)c2n1)c1cc(F)ccc1OCC(F)F (some centres unmarked) [Compound 10] | yes
CC(Nc1ccn2ncc(-c3cnn(C4CCOCC4)c3)c2n1)c1cc(F)ccc1OCCF (centres unmarked) [Compound a19-26] | no
CCOc1ccc(F)cc1C(C)Nc1ccn2ncc(-c3cn[nH]c3)c2n1 (centres unmarked) [Compound b5-11] | no
CCCOc1ccc(F)cc1C(C)Nc1ccn2ncc(-c3cn[nH]c3)c2n1 (centres unmarked) [Compound b9-33] | yes
CC(Nc1ccn2ncc(-c3cn[nH]c3)c2n1)c1cc(F)ccc1O (centres unmarked) [Compound b1-1] | no
CC(Nc1ccn2ncc(-c3cnn(C)c3)c2n1)c1ccccc1OCC(F)F (centres unmarked) [Compound 17] | no
C[C@@H](Nc1ccn2ncc(-c3cnn(CCO)c3)c2n1)c1cc(F)ccc1OCC(F)(F)F [Compound a24-32] | yes
C[C@@H](Nc1ccn2ncc(-c3cn[nH]c3)c2n1)c1cc(F)ccc1OCCF [Compound b7-16] | yes
C[C@@H](Nc1ccn2ncc(-c3cnn(C)c3)c2n1)c1cc(F)ccc1OCCF [Compound a10-17] | yes
C[C@@H](Nc1ccn2ncc(-c3cnn(C)c3)c2n1)c1cc(F)ccc1OC(F)F [Compound a4-8] | yes
CC(Nc1ccn2ncc(-c3cnn(C4CCOCC4)c3)c2n1)c1cc(F)ccc1OCCCF (centres unmarked) [Compound a25-35] | no
COCCOc1ccc(F)cc1C(C)Nc1ccn2ncc(-c3cnn(C4CCOCC4)c3)c2n1 (centres unmarked) [Compound a9-14] | no
CC(Nc1ccn2ncc(-c3cnn(C4CC4)c3)c2n1)c1cc(F)ccc1OCC(F)F (centres unmarked) [Compound 4] | no
CC(Nc1ccn2ncc(-c3cn[nH]c3)c2n1)c1cc(F)cc(OCC(F)F)c1 (centres unmarked) [Control Compound C, reference compound] | no
COCCOc1ccc(F)cc1C(C)Nc1ccn2ncc(-c3cn[nH]c3)c2n1 (centres unmarked) [Compound b6-15] | no
CC(Nc1ccn2ncc(-c3cnn(C)c3)c2n1)c1cc(F)ccc1OC1CCOC1 (centres unmarked) [Compound a27-41] | yes
CC(Nc1ccn2ncc(-c3cnn(C)c3)c2n1)c1cc(F)ccc1O (centres unmarked) [Compound a1-2] | no
CC(Nc1ccn2ncc(-c3cn[nH]c3)c2n1)c1cc(F)ccc1OCF (centres unmarked) [Compound b3-6] | no
CC(Nc1ccn2ncc(-c3cn[nH]c3)c2n1)c1cc(F)ccc1OCCCF (centres unmarked) [Compound b10-34] | no
CCOc1ccc(F)cc1C(C)Nc1ccn2ncc(-c3cnn(C4CCOCC4)c3)c2n1 (centres unmarked) [Compound a7-12] | no
CC(Nc1ccn2ncc(-c3cn[nH]c3)c2n1)c1ccc(OCC(F)F)c(F)c1 (centres unmarked) [Control Compound D, reference compound] | no
C[C@@H](Nc1ccn2ncc(-c3cn[nH]c3)c2n1)c1cc(F)ccc1OCC(F)(F)F [Compound b8-30] | yes
CC(Nc1ccn2ncc(-c3cnn(C4CCOCC4)c3)c2n1)c1cc(F)ccc1OC(F)F (centres unmarked) [Compound a6-10] | no
CC(Nc1ccn2ncc(-c3cnn(C4CCCC4O)c3)c2n1)c1cc(F)ccc1OCC(F)F (centres unmarked) [Compound 8] | yes
CC(Nc1ccn2ncc(-c3cnn(CCO)c3)c2n1)c1cc(F)ccc1OC(F)F (centres unmarked) [Compound a5-9] | yes

Ref: patent US20220177477A1
